Quantity Measured: melting point

                            chemical_smiles  quantity_measured  value_measured
0                 COC(=O)c1ccc(OC)c2c1OCCO2      melting point           84 °C
1    COc1cccc(Oc2ncccc2C(=O)NCc2ccccc2Cl)c1      melting point     71 to 74 °C
2  COc1ccc(-c2cc(CN3C(=O)c4ccccc4C3=O)c(=O)n(Cc3ccc(Cl)cc3)n2)cc1F      melting point   212 to 214 °C

Q: Using the record for `Cc1ccccc1-c1nc(-c2cccc(Cl)c2)nn1C` , report its melting point.
Ans: 77 to 78 °C

Q: Now this one: `N#CC=Cc1ccc(F)c(Cl)c1F`
Ans: 76 to 77 °C

Q: Now this one: `CCC1(CC)Cc2c(C(=O)O)ccc(OC)c2O1`
Ans: 152 to 154 °C

Q: Now this one: `O=C(c1cc2cc([N+](=O)[O-])ccc2[nH]1)N1CCC(Cc2ccccc2)CC1`
Ans: 220 to 224 °C

Q: Now this one: `CCN(CC)c1ccc2c(C)c(C#Cc3ccccc3)c(=O)oc2c1`
Ans: 142 to 144 °C

Q: Now this one: `Cc1ccc(Cl)cc1N1C(=O)CON(C)C1=S`
Ans: 100 to 102 °C

Q: Now this one: `O=C(Nc1ccc(OCCN2CCOCC2)c2ccccc12)c1cccc(Br)c1`
Ans: 90 to 93 °C

Q: Now this one: `CC(C)(C)c1ccc(/C=C/C(=O)Nc2ccc3ocnc3c2)cc1`
Ans: 177 °C

###

Quantity Measured: melting point

Here's what some known entries look like.
                            chemical_smiles  value_measured
0  Cc1cccc(Br)c1C(=O)c1sc(Nc2ccc(N3CCOCC3)cc2)nc1N   105 to 125 °C
1  C#CC(C)(C)N1CCC(N2CCN(CCCN3CCCCC3)C2=C(C#N)C#N)CC1   112 to 115 °C
2  O=C1C(=O)c2ccc(-c3cccc(C(F)(F)F)c3)cc2C2=C1SCC1(CCNCC1)O2   199 to 203 °C
3  CN1C(=O)C(Br)=C(c2c[nH]c3c(OC(c4ccccc4)c4ccccc4)cccc23)C1=O          205 °C

Q: Using the record for `Nc1cccc(SCc2ccccc2)n1` , report its melting point.
Ans: 65 to 66 °C

###

Parameter melting point: see the listing below.

Here's what some known entries look like.
In [3]: df
Out[3]:
                                   compound  value_measured
0  COc1ccc(N(C)c2nc(NC(=O)C(C)(C)C)nc3[nH]c4ccccc4c23)cc1   288 to 289 °C
1                   O=C(c1ccc(O)cc1)c1ccon1   125 to 127 °C
2  Nc1ccc(C23CC2C(=O)NC3=O)cc1 (stereo not given)   183 to 185 °C
3  COc1ccc(C(C)C)cc1-c1cc(-c2nnnn2C2CCNC2)c(OCc2ccccc2)cc1OCc1ccccc1 (stereo not given)     85 to 87 °C
4  CC(C)(Oc1ccc(OCc2cnc(-c3ccc(C(F)(F)F)cc3)nc2C2CC2)c(F)c1)C(=O)O          178 °C

Q: Using the record for `Cc1ccccc1-n1c(C)nc2cscc2c1=O` , report its melting point.
Ans: 122 to 123 °C

Q: Now this one: CNC(=O)c1ccc(N2CCN(Cc3cc(C)c4c(c3)NC(=O)C(C)O4)CC2)c(C)c1 (stereo not given)
Ans: 113 to 120 °C

Q: Now this one: `O=C(O)c1cc(S(=O)(=O)N2CCC(CO)CC2)ccc1Cl`
Ans: 185 to 187 °C

Q: Now this one: `O=C(OC1CCCCC1)c1ccc(Nc2nc(Nc3ccc(C(=O)OC4CCCCC4)cc3)nc(Nc3ccc(C(=O)OC4CCCCC4)cc3)n2)cc1`
Ans: 171 to 173 °C

Q: Now this one: `COc1ccc(N2CCOCC2)c2sc(C(=O)NCC(=O)c3cccs3)nc12`
Ans: 165 °C
